- TARGET_OR_SYSTEM: Recombinant human calpain I (Homo sapiens)
- Construct: made in house
- MEASUREMENT_NOTES: Inhibition of calpain I activity
- Assay type: biochemical
- MEASUREMENT_SETUP: Table III
pIC50: −log10 of the molar value. Square brackets hold non-standard residues; d marks the D form. Peptide text beside a SMILES is read from it. * marks the point of attachment. d(hPhe) = N[C@H](CCc1ccccc1)C(=O)O; Bn = c1ccc(C*)cc1; Ms = CS(=O)(=O)*
ASSAY_READOUT: pIC50

I = CC(=O)Nc1ccc(S(=O)(=O)N2CCC[C@@H]2C(=O)N[C@H](C=O)Cc2ccccc2)cc1 [Compound 103]
II = CS(=O)(=O)N[C@H](C(=O)N[C@H](C=O)Cc1ccccc1)c1cccs1 [Compound 97]
Exam item: Between I and II , which one shows the larger pIC50 value? Answer format: the label of the selected item.
Marked response: II

1 = O=C[C@H](Cc1ccccc1)NC(=O)[C@@H](COCc1ccccc1)NC(=O)C(c1ccccc1)c1ccccc1 [Compound 45]
2 = CS(=O)(=O)N[C@H](CCc1ccccc1)C(=O)N[C@H](C=O)Cc1ccccc1 [Compound 62] (Ms-[d(hPhe)]-Phe-aldehyde)
Exam item: Identify the item whose pIC50 is the smaller number: 1 or 2 # answer = label of selected item
Marked response: 1
(1: 7.07, 2: 7.41)

a = CS(=O)(=O)NC(CCSCc1ccccc1)C(=O)N[C@H](C=O)Cc1ccccc1 (single isomer, unassigned) [Compound 107]
b = CS(=O)(=O)N[C@H](COCc1ccccc1)C(=O)N[C@H](C=O)CCCCNC(=O)OCc1ccccc1 [Compound 92]
c = C[C@H](OCc1ccccc1)[C@@H](NS(C)(=O)=O)C(=O)N[C@H](C=O)Cc1ccccc1 [Compound 43] (Ms-[dT](Bn)-Phe-aldehyde)
Exam item: Kindly order the items shown according to pIC50, from the highest value down. Return the labels ranked in the requested order, please.
Marked response: b, c, a

---

- TARGET_OR_SYSTEM: cathepsin L (Homo sapiens, UniProt P07711)
- Construct: purchased Calbiochem 219402
- Sequence (P07711 114-288 limits assumed): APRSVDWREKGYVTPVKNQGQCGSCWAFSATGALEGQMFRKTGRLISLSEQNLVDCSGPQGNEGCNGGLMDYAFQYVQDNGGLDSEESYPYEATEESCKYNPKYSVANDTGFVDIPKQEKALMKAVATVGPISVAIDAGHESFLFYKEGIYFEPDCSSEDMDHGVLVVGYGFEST
- Sequence (P07711 292-333 limits assumed): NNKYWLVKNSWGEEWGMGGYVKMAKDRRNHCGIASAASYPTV
- MEASUREMENT_NOTES: Inhibition of cathepsin L
- Format: biochemical
- MEASUREMENT_SETUP: Table III; 1 uM; read-out: Cat L % I @ 1 uM
Square brackets hold non-standard residues; d marks the D form. Peptide text beside a SMILES is read from it. * marks the point of attachment. Tle = CC(C)(C)[C@H](N)C(=O)O; Bn = c1ccc(C*)cc1; Ms = CS(=O)(=O)*
ASSAY_READOUT: inhibition at 1 µM (%)

CON=C[C@H](Cc1ccccc1)NC(=O)[C@@H](COCc1ccccc1)NS(C)(=O)=O    98
CC(C)(C)[C@@H](C=O)NC(=O)[C@@H](COCc1ccccc1)NS(C)(=O)=O [Compound 111] (Ms-[dS](Bn)-[Tle]-aldehyde)    91
O=C[C@H](Cc1ccccc1)NC(=O)[C@@H](COCc1ccccc1)NS(=O)(=O)c1ccc2ccccc2c1    100
CS(=O)(=O)N[C@H](Cc1ccccc1)C(=O)N[C@H](C=O)Cc1ccccc1 [Compound 70] (Ms-[dF]-Phe-aldehyde)    100

---

- TARGET_OR_SYSTEM: Recombinant human calpain I (Homo sapiens)
- Construct: made in house
- Sequence (P07384 1-714): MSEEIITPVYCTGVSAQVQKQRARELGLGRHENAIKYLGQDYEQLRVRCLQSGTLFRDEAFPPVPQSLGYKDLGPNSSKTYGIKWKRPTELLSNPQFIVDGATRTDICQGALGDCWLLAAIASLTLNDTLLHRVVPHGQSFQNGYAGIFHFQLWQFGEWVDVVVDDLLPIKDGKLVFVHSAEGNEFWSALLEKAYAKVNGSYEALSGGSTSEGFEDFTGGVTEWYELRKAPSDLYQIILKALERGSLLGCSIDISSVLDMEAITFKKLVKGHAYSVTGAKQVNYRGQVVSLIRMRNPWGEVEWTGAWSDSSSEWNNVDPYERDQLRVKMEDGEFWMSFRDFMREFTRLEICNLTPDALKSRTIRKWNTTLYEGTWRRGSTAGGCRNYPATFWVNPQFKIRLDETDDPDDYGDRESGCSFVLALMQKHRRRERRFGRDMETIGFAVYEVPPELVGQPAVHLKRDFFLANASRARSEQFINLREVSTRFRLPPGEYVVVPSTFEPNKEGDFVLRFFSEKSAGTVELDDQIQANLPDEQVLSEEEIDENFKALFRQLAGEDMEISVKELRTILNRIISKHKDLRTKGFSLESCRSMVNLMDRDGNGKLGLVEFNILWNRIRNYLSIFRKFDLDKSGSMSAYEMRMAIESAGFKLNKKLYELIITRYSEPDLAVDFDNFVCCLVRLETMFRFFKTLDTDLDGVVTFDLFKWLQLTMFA
- MEASUREMENT_NOTES: Inhibition of calpain I activity
- Format: biochemical
- MEASUREMENT_SETUP: Table III; 0.1 uM
Square brackets hold non-standard residues; d marks the D form. Peptide text beside a SMILES is read from it. * marks the point of attachment. Tos = Cc1ccc(S(=O)(=O)*)cc1; Bn = c1ccc(C*)cc1; Ms = CS(=O)(=O)*
ASSAY_READOUT: inhibition at 0.1 µM (%)

CS(=O)(=O)N[C@H](COCc1ccccc1)C(=O)N[C@H](C=O)CCCCNS(=O)(=O)c1ccccc1    98
CS(=O)(=O)N[C@H](COCc1ccccc1)C(=O)N[C@H](C=O)Cc1ccc(OCc2ccccc2)cc1 [Compound 90] (Ms-[dS](Bn)-Tyr(Bn)-aldehyde)    99
Cc1ccc(S(=O)(=O)N[C@H](Cc2ccccc2)C(=O)N[C@H](C=O)Cc2ccccc2)cc1 [Compound 61] (Tos-[dF]-Phe-aldehyde)    83
CS(=O)(=O)N[C@H](CS(=O)(=O)Cc1ccccc1)C(=O)N[C@H](C=O)Cc1ccccc1    90
CS(=O)(=O)N[C@H](Cc1ccccc1)C(=O)N[C@H](C=O)Cc1ccccc1 [Compound 70] (Ms-[dF]-Phe-aldehyde)    85
CS(=O)(=O)N[C@H](Cc1ccc(OCc2ccccc2)cc1)C(=O)N[C@H](C=O)Cc1ccccc1 [Compound 89] (Ms-[dY](Bn)-Phe-aldehyde)    82
